Provenance of the data: patent US20140072563A1

Biological target: T1, hErbB3.hFc (soluble dimeric human ErbB3 extracellular domain fused to human Fc) (human)
T1 construct: called dimeric
T1 sequence (chain, as listed by the source limits assumed): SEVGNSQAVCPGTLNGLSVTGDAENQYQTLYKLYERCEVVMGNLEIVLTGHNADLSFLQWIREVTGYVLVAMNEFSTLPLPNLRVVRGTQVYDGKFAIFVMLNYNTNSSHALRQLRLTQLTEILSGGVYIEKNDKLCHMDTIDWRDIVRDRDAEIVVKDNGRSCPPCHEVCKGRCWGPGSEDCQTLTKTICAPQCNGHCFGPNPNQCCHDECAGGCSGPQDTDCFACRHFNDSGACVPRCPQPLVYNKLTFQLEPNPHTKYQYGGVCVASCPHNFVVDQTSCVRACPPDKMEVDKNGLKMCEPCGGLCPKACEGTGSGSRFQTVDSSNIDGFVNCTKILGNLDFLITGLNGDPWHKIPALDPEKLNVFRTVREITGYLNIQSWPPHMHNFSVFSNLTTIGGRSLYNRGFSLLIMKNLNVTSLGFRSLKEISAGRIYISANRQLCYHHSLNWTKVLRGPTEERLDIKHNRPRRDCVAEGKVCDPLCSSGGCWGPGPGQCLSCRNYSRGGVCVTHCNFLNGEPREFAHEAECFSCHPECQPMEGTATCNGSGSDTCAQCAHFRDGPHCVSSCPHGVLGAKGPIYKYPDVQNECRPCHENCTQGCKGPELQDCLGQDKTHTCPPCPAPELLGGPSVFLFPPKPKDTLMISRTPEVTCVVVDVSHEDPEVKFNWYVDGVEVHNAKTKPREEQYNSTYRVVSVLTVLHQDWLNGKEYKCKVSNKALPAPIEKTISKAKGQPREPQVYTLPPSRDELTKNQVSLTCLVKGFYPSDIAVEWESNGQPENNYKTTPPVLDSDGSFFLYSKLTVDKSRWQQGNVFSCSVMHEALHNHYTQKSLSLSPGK
Experiment: SPR (Biacore), 25 C, mAb capture format
recordedEndpoint: T½

[
  {
    "binder": "H2M1938N (antibody, V domains shown, Hybridoma chimeric antibody: human variable domains, mouse IgG2 Fc (H2M prefix)) VH: EVQLVESGGGVVRPGGSLRLSCAASGFTFDDYGMSWVRQVPGKGLEWVSGLNWNGGITGYTDSVKGRFTISRDNAKNSLYLQMNSLRAEDTAFYHCARDSGDQDAFDIWGQGTMVTVSS VL: QIVMTQSPATLSVSPGERATLSCRASQSITPYLAWYQQKPGQTPRLLIYGVSTRATGIPARFSGSGSGTEFTLTISSLQSEDFAVYYCQQYDNWYTFGQGTKLEIK",
    "recordedEndpoint": "T½",
    "assayResult": "14.2 h"
  },
  {
    "binder": "H2M1930N (antibody, V domains shown, Hybridoma chimeric antibody: human variable domains, mouse IgG2 Fc (H2M prefix)) VH: EVQLVESGGGLVKPGGSLRLSCVASGFTFSSYNMNWVRQAPGKGLEWVSFISGSSNYIHYADSVKGRFTISRDNAKNALYLQMNSLRAEDTAVYYCARDDGDYDWFDPWGQGTLVTVSS VL: EIVLTQSPGTLSLSPGERATLSCRASQSVSSSYLAWYQQKPGQAPRLLIYGTSSRATGIPDRFSGSGSGTDFTLTISRLEPEDFAVYYCQQYDNSYTFGQGTKLEIK",
    "recordedEndpoint": "T½",
    "assayResult": "23.3 h"
  }
]
